Where these numbers come from: the RNAGym collection of RNA variant scans (doi:10.7554/elife.90254)

B1: LINE1-mini (parent)
chain: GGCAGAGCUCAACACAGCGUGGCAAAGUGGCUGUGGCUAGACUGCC

variants of: B1; assay: self-cleavage, relative activity (ratio to wild type); higher = more cleavage; in vitro, sequencing; the parent is a self-cleaving ribozyme
The label depends only on self-cleavage: y if it is at least 0.2, n if it is smaller.

Take a look at these entries with their results.
# sequence.content, category.label
measured = [
    ("GGCAGAGCUCAACACAGCGUGGCAAAGUGGCUGUGGCUAGAAUGCU [C42A C46U]", "n"),
    ("GGCAGGGCUCAACACAGCGUGGCACAGUGGCUGUGGCUAGACUGCC [A6G A25C]", "n"),
    ("GGCAGAGCUCUACACAGCGUGGCAACGUGGCUGUGGCUAGACUGCC [A11U A26C]", "n"),
    ("GACAGAGCUCAACACAGCGUGGCAAAGUGGCUGUAGCUAGACUGCC [G2A G35A]", "y"),
    ("GGCAGAGCGGAACACAGCGUGGCAAAGUGGCUGUGGCUAGACUGCC [U9G C10G]", "n"),
    ("GGCAGAUCUCAACACAGCGUGGCAAAGUGGCUGUGGCCAGACUGCC [G7U U38C]", "n"),
]

q: Please check the record GGCAGAGCUCAACACAGCGUGGCGAAGUGACUGUGGCUAGACUGCC [A24G G30A] and state if its self-cleavage is at or above 0.2.
a: y

q: Please check the record GGCAGAGCUCAACACAUCGUGGCAAAGUGGCUGUGGCUAUACUGCC [G17U G40U] and state if its self-cleavage is at or above 0.2.
a: n

q: Please check the record GGCAGAGCUCAAGACAGCGUGGCAAAGUGGCUGUGGCCAGACUGCC [C13G U38C] and state if its self-cleavage is at or above 0.2.
a: y

q: Please check the record GGCAGAACUCAACACAGCGUGGCAAAGUGGCUGUGCCUAGACUGCC [G7A G36C] and state if its self-cleavage is at or above 0.2.
a: y

q: Please check the record GGCAGAGCUCAACACAGCGUGGCAAAGUGCCUGGGGCUAGACUGCC [G30C U34G] and state if its self-cleavage is at or above 0.2.
a: n
